Test system: PC-14
test: relative viability (nuclei count vs DMSO), 5 days (fraction); higher = more cells survive
condition-notes: first compound 0.08 µM
measurement-type: relative viability

INSERT INTO results (compound, result_number) VALUES
  ('O=c1cc(-c2cccc3c2Sc2ccccc2S3)oc(N2CCOCC2)c1 + COc1cc2c(Oc3ccc(NC(=O)C4(C(=O)Nc5ccc(F)cc5)CC4)cc3F)ccnc2cc1OCCCN1CCOCC1 [Foretinib] (partner 0.25 µM)', 0.95),
  ('COc1nc(C)cnc1NS(=O)(=O)c1cccnc1-c1ccc(-c2nnco2)cc1 [Zibotentan] + NC(=O)Nc1cc(-c2cccc(F)c2)sc1C(=O)N[C@H]1CCCNC1 [AZD7762] (partner 0.2 µM)', 0.445),
  ('COc1nc(C)cnc1NS(=O)(=O)c1cccnc1-c1ccc(-c2nnco2)cc1 [Zibotentan] + Cc1nc(Nc2ncc(C(=O)Nc3c(C)cccc3Cl)s2)cc(N2CCN(CCO)CC2)n1 [Dasatinib] (partner 0.075 µM)', 0.26);

* * *

Measured relative viability of individual entries
Test system: 201T
test: relative viability (nuclei count vs DMSO), 5 days (fraction); higher = more cells survive
condition-notes: first compound 0.1 µM
measurement-type: relative viability

INSERT INTO assay_data (compound, measurement_type, result_number) VALUES
  ('CCN(CC)CCCCNc1ncc2cc(-c3cc(OC)cc(OC)c3)c(NC(=O)NC(C)(C)C)nc2n1 + N=C(N)NC(=N)NCCc1ccccc1 [Phenformin] (partner 250 µM)', 'relative viability', 0.51),
  ('O=c1cc(N2CCOCC2)oc2c(-c3cccc4c3sc3ccccc34)cccc12 + CC(=O)Nc1cccc(-n2c(=O)n(C3CC3)c(=O)c3c(Nc4ccc(I)cc4F)n(C)c(=O)c(C)c32)c1 [Trametinib] (partner 0.02 µM)', 'relative viability', 0.69),
  ('O=c1cc(N2CCOCC2)oc2c(-c3cccc4c3sc3ccccc34)cccc12 + Nc1nc2[nH]cc(CCc3ccc(C(=O)N[C@@H](CCC(=O)O)C(=O)O)cc3)c2c(=O)[nH]1 [Pemetrexed] (partner 0.2 µM)', 'relative viability', 0.338),
  ('O=c1cc(N2CCOCC2)oc2c(-c3cccc4c3sc3ccccc34)cccc12 + COc1cccc2cc(-c3nc([C@H]4CC[C@H](C(=O)O)CC4)n4ncnc(N)c34)[nH]c12 [OSI-027] (partner 0.5 µM)', 'relative viability', 0.715),
  ('O=c1cc(N2CCOCC2)oc2c(-c3cccc4c3sc3ccccc34)cccc12 + CCNC(=O)c1noc(-c2cc(C(C)C)c(O)cc2O)c1-c1ccc(CN2CCOCC2)cc1 [Luminespib] (partner 0.01 µM)', 'relative viability', 1.03);

* * *

Below is a list of entries, each paired with its recorded relative viability value.
System: RERF-LC-KJ
test: relative viability (nuclei count vs DMSO), 5 days (fraction); higher = more cells survive
condition-notes: first compound 2.53 µM
measurement-type: relative viability

INSERT INTO measurements (compound, tested_target, result_number) VALUES
  ('COc1nc(C)cnc1NS(=O)(=O)c1cccnc1-c1ccc(-c2nnco2)cc1 [Zibotentan] + CS(=O)(=O)CCNCc1ccc(-c2ccc3ncnc(Nc4ccc(OCc5cccc(F)c5)c(Cl)c4)c3c2)o1 [Lapatinib] (partner 2 µM)', 'RERF-LC-KJ', 0.845),
  ('O=c1cc(-c2cccc3c2Sc2ccccc2S3)oc(N2CCOCC2)c1 + C[C@@H](Oc1cc(-c2cnn(C3CCNCC3)c2)cnc1N)c1c(Cl)ccc(F)c1Cl [Crizotinib] (partner 1 µM)', 'RERF-LC-KJ', 0.948),
  ('O=c1cc(-c2cccc3c2Sc2ccccc2S3)oc(N2CCOCC2)c1 + Cc1nc(Nc2ncc(C(=O)Nc3c(C)cccc3Cl)s2)cc(N2CCN(CCO)CC2)n1 [Dasatinib] (partner 0.075 µM)', 'RERF-LC-KJ', 0.758),
  ('COc1nc(C)cnc1NS(=O)(=O)c1cccnc1-c1ccc(-c2nnco2)cc1 [Zibotentan] + CC(=O)Nc1cccc(-n2c(=O)n(C3CC3)c(=O)c3c(Nc4ccc(I)cc4F)n(C)c(=O)c(C)c32)c1 [Trametinib] (partner 0.02 µM)', 'RERF-LC-KJ', 0.888),
  ('COc1nc(C)cnc1NS(=O)(=O)c1cccnc1-c1ccc(-c2nnco2)cc1 [Zibotentan] + O=C(c1cc(Cc2n[nH]c(=O)c3ccccc23)ccc1F)N1CCN(C(=O)C2CC2)CC1 [Olaparib] (partner 8 µM)', 'RERF-LC-KJ', 0.894);

* * *

System: BEN
test: relative viability (nuclei count vs DMSO), 5 days (fraction); higher = more cells survive
condition-notes: first compound 0.08 µM
measurement-type: relative viability

INSERT INTO measurements (molecule, result_number) VALUES
  ('COc1nc(C)cnc1NS(=O)(=O)c1cccnc1-c1ccc(-c2nnco2)cc1 [Zibotentan] + Nc1nc2[nH]cc(CCc3ccc(C(=O)N[C@@H](CCC(=O)O)C(=O)O)cc3)c2c(=O)[nH]1 [Pemetrexed] (partner 0.2 µM)', 0.781),
  ('O=c1cc(-c2cccc3c2Sc2ccccc2S3)oc(N2CCOCC2)c1 + NC(=O)Nc1cc(-c2cccc(F)c2)sc1C(=O)N[C@H]1CCCNC1 [AZD7762] (partner 0.2 µM)', 0.694),
  ('O=c1cc(-c2cccc3c2Sc2ccccc2S3)oc(N2CCOCC2)c1 + CS(=O)(=O)CCNCc1ccc(-c2ccc3ncnc(Nc4ccc(OCc5cccc(F)c5)c(Cl)c4)c3c2)o1 [Lapatinib] (partner 2 µM)', 0.703),
  ('COc1nc(C)cnc1NS(=O)(=O)c1cccnc1-c1ccc(-c2nnco2)cc1 [Zibotentan] + C[C@]1(O)C[C@@H](c2nc(-c3ccc4ccc(-c5ccccc5)nc4c3)c3c(N)nccn32)C1 [Linsitinib] (partner 1 µM)', 1.04),
  ('O=c1cc(-c2cccc3c2Sc2ccccc2S3)oc(N2CCOCC2)c1 + CC(=O)c1c(C)c2cnc(Nc3ccc(N4CCNCC4)cn3)nc2n(C2CCCC2)c1=O [Palbociclib] (partner 0.5 µM)', 0.464),
  ('COc1nc(C)cnc1NS(=O)(=O)c1cccnc1-c1ccc(-c2nnco2)cc1 [Zibotentan] + CS(=O)(=O)N1CCN(Cc2cc3nc(-c4cccc5[nH]ncc45)nc(N4CCOCC4)c3s2)CC1 [Pictilisib] (partner 1 µM)', 0.652),
  ('O=c1cc(-c2cccc3c2Sc2ccccc2S3)oc(N2CCOCC2)c1 + CC(C)C[C@H](NC(=O)[C@H](Cc1ccccc1)NC(=O)c1cnccn1)B(O)O [Bortezomib] (partner 0.002 µM)', 0.802),
  ('COc1nc(C)cnc1NS(=O)(=O)c1cccnc1-c1ccc(-c2nnco2)cc1 [Zibotentan] + C[C@@H](Oc1cc(-c2cnn(C3CCNCC3)c2)cnc1N)c1c(Cl)ccc(F)c1Cl [Crizotinib] (partner 1 µM)', 0.803),
  ('COc1nc(C)cnc1NS(=O)(=O)c1cccnc1-c1ccc(-c2nnco2)cc1 [Zibotentan] + CC(C)C[C@H](NC(=O)[C@H](Cc1ccccc1)NC(=O)c1cnccn1)B(O)O [Bortezomib] (partner 0.002 µM)', 0.912);

* * *

Measured relative viability, listed per entry for reference.
Test system: ChaGo-K-1
test: relative viability (nuclei count vs DMSO), 5 days (fraction); higher = more cells survive
condition-notes: first compound 0.08 µM
measurement-type: relative viability

INSERT INTO measurements (compound, result_number) VALUES
  ('COc1nc(C)cnc1NS(=O)(=O)c1cccnc1-c1ccc(-c2nnco2)cc1 [Zibotentan] + CCNC(=O)c1noc(-c2cc(C(C)C)c(O)cc2O)c1-c1ccc(CN2CCOCC2)cc1 [Luminespib] (partner 0.01 µM)', 0.568),
  ('COc1nc(C)cnc1NS(=O)(=O)c1cccnc1-c1ccc(-c2nnco2)cc1 [Zibotentan] + COc1cc2c(Oc3ccc(NC(=O)C4(C(=O)Nc5ccc(F)cc5)CC4)cc3F)ccnc2cc1OCCCN1CCOCC1 [Foretinib] (partner 0.25 µM)', 0.941),
  ('COc1nc(C)cnc1NS(=O)(=O)c1cccnc1-c1ccc(-c2nnco2)cc1 [Zibotentan] + N=C(N)NC(=N)NCCc1ccccc1 [Phenformin] (partner 250 µM)', 0.563),
  ('O=c1cc(-c2cccc3c2Sc2ccccc2S3)oc(N2CCOCC2)c1 + Nc1nc2[nH]cc(CCc3ccc(C(=O)N[C@@H](CCC(=O)O)C(=O)O)cc3)c2c(=O)[nH]1 [Pemetrexed] (partner 0.2 µM)', 0.251),
  ('O=c1cc(-c2cccc3c2Sc2ccccc2S3)oc(N2CCOCC2)c1 + CCNC(=O)c1noc(-c2cc(C(C)C)c(O)cc2O)c1-c1ccc(CN2CCOCC2)cc1 [Luminespib] (partner 0.01 µM)', 0.533),
  ('O=c1cc(-c2cccc3c2Sc2ccccc2S3)oc(N2CCOCC2)c1 + COc1cc2c(Oc3ccc(NC(=O)C4(C(=O)Nc5ccc(F)cc5)CC4)cc3F)ccnc2cc1OCCCN1CCOCC1 [Foretinib] (partner 0.25 µM)', 0.883);
